# TARGET OR SYSTEM: Dickkopf-related protein 1 (Homo sapiens) (UniProt O94907)
# Sequence (O94907 whole entry, looked up): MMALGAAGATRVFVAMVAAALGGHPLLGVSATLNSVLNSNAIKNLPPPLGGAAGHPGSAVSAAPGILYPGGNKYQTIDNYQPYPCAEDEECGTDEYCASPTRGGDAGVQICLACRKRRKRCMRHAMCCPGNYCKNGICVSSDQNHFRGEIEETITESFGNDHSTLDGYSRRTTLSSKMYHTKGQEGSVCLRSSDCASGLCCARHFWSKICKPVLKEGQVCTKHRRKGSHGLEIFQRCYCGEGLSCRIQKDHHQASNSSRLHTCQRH
# PROCEDURE SUMMARY: DKK1 binders on small-molecule microarrays, primary screen, biochemical, small-molecule microarray, 635 nm fluorescence scan (AID 1106);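 further: score merges emission near 667 nm with signal to noise over three replicate slides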
# SETTINGS: DKK1 binding, higher = more signal
Task for the reader: assign each of the following compounds its reported composite z-score.
Give the figure only, with no unit attached.

The measured composite z-score associated with CCN(CC)c1ccc(N2CC=CC34O[C@@H]5C=CCOC(=O)[C@@H]5[C@H]3C(=O)N(CCCO)[C@@H]4C2=O)cc1 (some centres undefined) reads -0.901

The measured composite z-score associated with O=C1C2C=CC(C(O)c3ccc([N+](=O)[O-])cc3)N(Nc3ccccc3)C2C(=O)N1c1ccccc1 (centres undefined) reads -0.521

The measured composite z-score associated with COCC(=C=CC[C@@H](O)c1ccc(OCCO)cc1)C[C@@H](O)COCc1ccccc1 reads -0.0983

The measured composite z-score associated with Cc1ccc(S[C@]2(C(=O)NC3CC3)CC(=O)N(Cc3cc(C(F)(F)F)cc(C(F)(F)F)c3)[C@@H]2c2ccc(CO)cc2I)cc1 reads -0.0211
